# SUBJECT OF TEST: ATP-dependent translocase ABCB1 (Homo sapiens, UniProt P08183)
# Sequence (P08183 whole entry): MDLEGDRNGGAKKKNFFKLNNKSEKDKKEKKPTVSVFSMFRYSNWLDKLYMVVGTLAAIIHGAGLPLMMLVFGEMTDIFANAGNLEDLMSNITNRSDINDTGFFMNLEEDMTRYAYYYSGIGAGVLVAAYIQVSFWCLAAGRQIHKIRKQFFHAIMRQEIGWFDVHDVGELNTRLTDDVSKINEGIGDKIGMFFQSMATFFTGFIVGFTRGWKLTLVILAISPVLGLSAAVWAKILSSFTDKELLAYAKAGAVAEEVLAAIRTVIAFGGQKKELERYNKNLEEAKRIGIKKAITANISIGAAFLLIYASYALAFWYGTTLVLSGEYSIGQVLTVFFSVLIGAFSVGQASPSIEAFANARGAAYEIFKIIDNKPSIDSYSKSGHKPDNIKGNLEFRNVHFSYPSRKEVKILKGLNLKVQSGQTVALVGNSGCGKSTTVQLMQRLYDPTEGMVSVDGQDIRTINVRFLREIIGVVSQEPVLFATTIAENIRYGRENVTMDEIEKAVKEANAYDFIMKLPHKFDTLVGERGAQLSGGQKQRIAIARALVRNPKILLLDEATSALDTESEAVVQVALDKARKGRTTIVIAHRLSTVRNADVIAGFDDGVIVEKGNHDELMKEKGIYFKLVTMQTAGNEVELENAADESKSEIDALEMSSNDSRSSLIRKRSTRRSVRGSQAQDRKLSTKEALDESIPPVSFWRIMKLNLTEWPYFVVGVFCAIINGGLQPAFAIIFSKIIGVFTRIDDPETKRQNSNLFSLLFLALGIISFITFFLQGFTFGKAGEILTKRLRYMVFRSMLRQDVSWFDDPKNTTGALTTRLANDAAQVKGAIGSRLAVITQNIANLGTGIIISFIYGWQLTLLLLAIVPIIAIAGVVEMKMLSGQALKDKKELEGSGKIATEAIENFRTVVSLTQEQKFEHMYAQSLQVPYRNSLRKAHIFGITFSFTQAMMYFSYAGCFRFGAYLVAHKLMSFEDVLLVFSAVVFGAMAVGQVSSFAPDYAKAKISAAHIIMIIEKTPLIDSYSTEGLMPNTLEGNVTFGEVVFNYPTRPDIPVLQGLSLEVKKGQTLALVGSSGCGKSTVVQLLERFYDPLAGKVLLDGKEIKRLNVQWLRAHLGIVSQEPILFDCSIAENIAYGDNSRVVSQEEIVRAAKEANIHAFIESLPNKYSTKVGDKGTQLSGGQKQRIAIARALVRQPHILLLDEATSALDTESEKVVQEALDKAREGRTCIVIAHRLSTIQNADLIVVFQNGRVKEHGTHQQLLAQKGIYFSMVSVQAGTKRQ
# MEASUREMENT DESCRIPTION: Inhibition of human MDR1 transfected in multi-drug resistant mouse L5178Y cells assessed as fluorescence activity ratio at 2 uM incubated for 10 mins by rhodamine 123 accumulation assay
# Type: cell-based
Assignment: determine reported Ratio for the given compounds.

Quote Ratio reported for `CC(C)(C)C(=O)C[Se]C(=O)c1ccc(Cl)cc1` please.
9.28

Quote Ratio reported for `O=C1[Se]C(=O)c2ccccc21` please.
43.14

Quote Ratio reported for `C[Se]C(=O)c1ccc(C(=O)[Se]C)cc1` please.
3.97

Quote Ratio reported for `C[Se]C(=O)c1ccc(C(=O)[Se]C)s1` please.
0.99

Quote Ratio reported for `O=C(C[Se]C(=O)c1ccccc1)Oc1ccccc1` please.
0.65

Quote Ratio reported for `CC(=O)C[Se]C(=O)c1ccc(Cl)cc1` please.
94.2

Quote Ratio reported for `C[Se]C(=O)c1cccc(C(=O)[Se]C)c1` please.
0.93

Quote Ratio reported for `NC(=O)C[Se]C(=O)c1ccccc1` please.
1.02

Quote Ratio reported for `COc1cc(OC)cc(C(=O)[Se]CC(=O)C(C)(C)C)c1` please.
12.56

Quote Ratio reported for `C[Se]C(=O)c1cccc(C(=O)[Se]C)n1` please.
1.13

Quote Ratio reported for `COC(=O)C[Se]C(=O)c1ccc(Cl)cc1` please.
6.45

====

# SUBJECT OF TEST: ATP-dependent translocase ABCB1 (Homo sapiens, UniProt P08183)
# MEASUREMENT DESCRIPTION: Inhibition of human MDR1 transfected in multi-drug resistant mouse L5178Y cells assessed as fluorescence activity ratio quotient at 20 uM incubated for 10 mins by rhodamine 123 accumulation assay relative to verapamil
# Type: cell-based
# Set-up: scale not given: the % may be the effect or the level left
Please note: Yes applies when Activity is 200% or greater, and No applies otherwise.

Answer whether Activity of `CC(=O)C[Se]C(=O)c1ccc(Cl)cc1` is greater than or equal to 200%.
Yes

Answer whether Activity of `COC(=O)C[Se]C(=O)c1ccc(Cl)cc1` is greater than or equal to 200%.
No

Answer whether Activity of `C[Se]C(=O)c1ccc(C(=O)[Se]C)cc1` is greater than or equal to 200%.
No

Answer whether Activity of `C[Se]C(=O)c1ccc(C(=O)[Se]C)s1` is greater than or equal to 200%.
No

Answer whether Activity of `C[Se]C(=O)c1cccc(C(=O)[Se]C)c1` is greater than or equal to 200%.
No

Answer whether Activity of `COc1cc(OC)cc(C(=O)[Se]CC(=O)C(C)(C)C)c1` is greater than or equal to 200%.
No

Answer whether Activity of `C[Se]C(=O)c1cccc(C(=O)[Se]C)n1` is greater than or equal to 200%.
No

Answer whether Activity of `O=C1[Se]C(=O)c2ccccc21` is greater than or equal to 200%.
Yes

Answer whether Activity of `NC(=O)C[Se]C(=O)c1ccccc1` is greater than or equal to 200%.
No

Answer whether Activity of `O=C(C[Se]C(=O)c1ccccc1)Oc1ccccc1` is greater than or equal to 200%.
No

Answer whether Activity of `CC(C)(C)C(=O)C[Se]C(=O)c1ccc(Cl)cc1` is greater than or equal to 200%.
No
